The entries below are paired with their reported log10(Ki).
biological target: Serotonin 2 (5-HT2) receptor (Rattus norvegicus, UniProt P30994+P08909+P14842); experiment: In vitro binding affinity towards 5-hydroxytryptamine 2 receptor in rat striatal membranes by [3H]ketanserin displacement.; assay type: cell membranes, Striatum, Membrane
Use the decimal logarithm of Ki (nM).

// below: answered compounds
[
  {
    "Compound": "O=C(CCCCN1C2CCC1c1c([nH]c3ccc(F)cc13)C2)c1ccc(F)cc1 (stereo in doubt; (S,R)-9)",
    "log10(Ki)": 0.27
  },
  {
    "Compound": "O=C(CCCCN1C2CCC1c1c([nH]c3ccc(F)cc13)C2)c1ccc(F)cc1 (mixture of isomers)",
    "log10(Ki)": 2.04
  },
  {
    "Compound": "O=C(CCCN1C2CCC1c1c([nH]c3ccc(F)cc13)C2)c1ccc(F)cc1 (mixture of isomers)",
    "log10(Ki)": 0.41
  },
  {
    "Compound": "O=C(CCCCN1C2CCC1c1c([nH]c3ccc(F)cc13)C2)c1ccc(F)cc1 (racemic)",
    "log10(Ki)": 0.47
  },
  {
    "Compound": "O=C(CCCN1C2CCC1c1c([nH]c3ccc(F)cc13)C2)c1ccc(F)cc1 (stereo in doubt; (S,R) 8)",
    "log10(Ki)": -0.10
  }
]

Pending compound:
Note to self: log10(Ki) recorded for O=C(CCCN1C2CCC1c1c([nH]c3ccc(F)cc13)C2)c1ccc(F)cc1 (racemic) was 0.29
